experiment: Drug release kinetics (prodrug cleavage) in human blood plasma; type: in vitro ADME; conditions: 100 % pooled human blood plasma, 100 % human plasma, 37 °C
assay.readout: half-life at 50 µM

smiles.structure	half-life at 50 µM
CN(C)CCc1cn(C(=O)OCc2ccccc2)c2cccc(O)c12	> 95 h

Here is the next item to consider.
[ask] Give its half-life at 50 µM value. Item: CCN(C)CCc1cn(C(=O)OCc2ccccc2)c2cccc(O)c12
[reply] > 95 h

====

Assay: Prodrug stability in human whole saliva
Assay type: in vitro ADME
Conditions: both sexes, 37 °C, mean of fresh samples of three individuals, classified into three groups
Protocol: Freshly collected saliva and 5 mM stock solutions of the analytes in DMSO were prewarmed to 37 °C for 10 min. Then, 700 µl prewarmed saliva was added to 7 µl of the prodrug stock, and the mixture was incubated at 37 °C. […] Analyte quantifications were performed on a Jasco HPLC system equipped with a UV detector and an RP-18 column (Chromolith® Performance RP-18e, 100x4.6 mm) using the gradients listed in Table 4. […] Table 4: HPLC settings for quantitative analysis of saliva samples.
assay.readout: half-life at 50 µM

[ask] Give its half-life at 50 µM value. Item: CC(=O)Oc1ccccc1C(=O)O [Acetylsalicylic acid, reference compound]
[reply] > 60 min

Reference for the values: patent EP4592276A1
